So I've got a bunch of compounds here, and I need their melting point values.

In: Suppose we examine the compound "CC(C)Cn1nnc2c3ncnc-3c3ccncc3n21" ; what melting point value has been reported?
Out: 181 to 182.5 °C

In: Similarly, "CC(C)Cn1cnc2c(N)nc3c(c21)NCCC3" ?
Out: 222 to 226 °C

In: What do you have for "CCCCc1nc2c(N)nc3cccnc3c2n1CCNC(=O)C1CCCCC1" ?
Out: 188 to 190 °C

* * *

- Test system: TNF
- assay_summary: Cytokine Induction in Human Cells: tumor necrosis factor (TNF) secreted by PBMCs, ELISA; further: call rule not given here
- Type: cell-based
- test_context: Dose Concentration 1.0 μM, 18 to 24 hours
Where a name gives a salt, the structure may show the parent alone.
reported_endpoint: TNF induction

Recorded results for 4 compounds are shown here.
CCCCc1nc2c(N)nc3cccnc3c2n1CCNC(=O)CCC(F)(F)F [Example 199] ... −
CCCCc1nc2c(N)nc3cnccc3c2n1CC(C)C [Example 27] ... +
CCCCc1nc2c(N)nc3cccnc3c2n1CC(C)(C)O [Example 62] ... +
CCCCc1nc2c(N)nc3cccnc3c2n1CCNC(=O)CCc1ccccc1 [Example 96, Hydrochloride] ... −

Let us move to another entry and its TNF induction.
In: # get_value(readout='TNF induction', item= CCCCc1nc2c(N)nc3cccnc3c2n1CCNC(=O)CCCCCC1NC(=O)NC1C (centres unmarked) [Example 115] )
Out: −
